Test system: P. berghei ookinete development
Details: primary screen at 1 μM, replicate A
ENDPOINT NAME: % inhibition, Replicate A (%)
Write the value in % as a bare number.

INPUT: What does the record list as % inhibition, Replicate A for COc1ccc2ncc(F)c(CCN3CCC(NCc4ccc5c(c4)CCO5)CC3)c2n1.Cl ?
OUTPUT: 14.40

INPUT: What does the record list as % inhibition, Replicate A for Cc1[nH]c(C)c(-c2ccc(C(=O)c3ccc(Cl)cc3)cc2)c(=O)c1Br ?
OUTPUT: 83.43

INPUT: What does the record list as % inhibition, Replicate A for CC(=O)c1ccc2nc[nH]c(=O)c2c1 ?
OUTPUT: 76.19

INPUT: What does the record list as % inhibition, Replicate A for CCCCCCCc1c(C)[nH]c2ccc(F)cc2c1=O ?
OUTPUT: 57.79

INPUT: What does the record list as % inhibition, Replicate A for CN1CCC(N(Cc2ccc(-c3ccc(Cl)cc3)cc2)C(=O)Cn2c(CCc3cccc(F)c3F)cc(=O)c3ccccc32)CC1.O=C(O)C(O)C(O)C(=O)O ?
OUTPUT: 22.22

INPUT: What does the record list as % inhibition, Replicate A for CCCc1cc2c3c(N)nc(N)nc3ccc2n1C(CC)CC ?
OUTPUT: 47.03

INPUT: What does the record list as % inhibition, Replicate A for CCCc1cc2c3c(N)nc(N)nc3ccc2n1CC ?
OUTPUT: 61.03

INPUT: What does the record list as % inhibition, Replicate A for CC(C)Cn1ccc2c3c(N)nc(N)nc3ccc21 ?
OUTPUT: 52.84

INPUT: What does the record list as % inhibition, Replicate A for O=C(c1cc(-c2ccco2)[nH]n1)N1CCN(S(=O)(=O)c2ccc(Br)cc2)CC1 ?
OUTPUT: 66.14

====

Tested on: HepG2 cells
Test: HepG2 cytotoxicity assay
Settings: unified HepG2 value across the three screens
Binary call on Unified cytotox with cut-off 80 µM: strictly below means 1.0, and equality or higher means 0.0.

INPUT: Here's an entry: COCCN(C)c1ccc(C(=O)Nc2ccccc2)cc1NS(=O)(=O)Cc1ccccc1.O=C(O)C(F)(F)F [TCMDC-134575] . Is its Unified cytotox below 80 µM?
OUTPUT: 0.0

INPUT: Here's an entry: CCn1c(CN2CCC(C)CC2)nc2cc(NC(=O)c3cccs3)ccc21 [TCMDC-124730] . Is its Unified cytotox below 80 µM?
OUTPUT: 1.0

INPUT: Here's an entry: CC1=CC(=O)[C@@H](O)[C@]2(C)[C@H]3[C@@]4(O)OC[C@@]35[C@@H](C[C@@H]12)OC(=O)C[C@H]5[C@@H](C)[C@H]4O [TCMDC-142261] . Is its Unified cytotox below 80 µM?
OUTPUT: 1.0

INPUT: Here's an entry: COc1ccc2nc(-c3cc(-c4ccc(NC(=O)C(C)C)cc4)cnc3N)[nH]c2c1 [TCMDC-135322] . Is its Unified cytotox below 80 µM?
OUTPUT: 1.0

INPUT: Here's an entry: CCNC1=NC2=C(CC(C(C)(C)C)CC2)C2(CCC(C(C)(C)C)CC2)S1.Cl (stereo not shown) [TCMDC-131288] . Is its Unified cytotox below 80 µM?
OUTPUT: 1.0

INPUT: Here's an entry: COc1ccc(-c2cnc(N)c(-c3ccc(C(N)=O)cc3)c2)cc1OC [TCMDC-133349] . Is its Unified cytotox below 80 µM?
OUTPUT: 0.0

INPUT: Here's an entry: CCOC(=O)C1=C(C)NC2=C(C(=O)C(C(=O)OC)C(C)C2)C1c1cc(Br)c(OCC)c(OC)c1 (stereo not shown) [TCMDC-125139] . Is its Unified cytotox below 80 µM?
OUTPUT: 0.0
